The measurements presented in this section are drawn from the supplement of paper PMC10065799.

Could you please report measured phosphorylation enrichment for the items listed next?
- System: Fer (mouse)
- test-method-notes: phosphorylation enrichment, bacterial display (enrichment ratio); higher = better substrate or ligand; peptides without Tyr show the background;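 also: 11-residue human phosphosite peptides and single-mutation variants displayed on the E. coli surface, counted by deep sequencing, each peptide's frequency after selection divided by its frequency in the unselected input library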;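 also: frequency after pTyr selection over input frequency; kinase dosed for 20-30% of maximal phosphorylation in three min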
// print number alone

Just so you know, measured phosphorylation enrichment for DPKFHYDNTAG [KDR_Y1214] came out at 0.401

Please fill in: phosphorylation enrichment reported for AEYGLYAAMVR [VSX2_Y222_G223A] = 5.05

According to the records, this sequence ILGRFYERGSI [PAX5_Y73_T75R_YF] displays phosphorylation enrichment of 0.398

Lab note: MNKNAYHNVTT [ST3GAL6_Y306_A311T] gave phosphorylation enrichment of 0.322

Memo: VQNIVYRTASI [CYP39A1_Y102] , reported phosphorylation enrichment: 0.34

// recorded phosphorylation enrichment for VSSPKYGSDDE [TMCC2_Y473] : 0.553

Sure, the documented phosphorylation enrichment for AQVDTYCRHNF [HLA-DRB1_Y107_A103Q_YF] is 0.628

Short answer for QISRDYGVLLE [PRDX3_Y172] : phosphorylation enrichment was 0.637

Form field phosphorylation enrichment, entry QKMFDYLKEKK [RYR2_Y3780_L3778F] : 0.574

Documented phosphorylation enrichment of GTFEDYVEGLR [MYL6_Y89_YF] : 0.454

The recorded phosphorylation enrichment for KENITYMKREQ [L1TD1_Y24] is 0.431

Documented phosphorylation enrichment of NTGYYYDLYGG [PTPN11_Y63_D61Y] : 3.4

Note to self: phosphorylation enrichment recorded for GDPVQYNRTTD [MLPH_Y454] was 0.435

Per the records, this sequence ( SVVVPYKPPEV [TP53_Y220_E221K] ) has phosphorylation enrichment equal to 0.471

Per the records, this sequence ( FVTCTYSPALN [TP53_Y126_S121F] ) has phosphorylation enrichment equal to 0.557

Memo: YFWDGYMPRQY [GSS_Y270_R267W] , reported phosphorylation enrichment: 0.576

The recorded phosphorylation enrichment for EALDFYGELRT [PTEN_Y155_V158L] is 0.779

Item: SSAKTYSRMRL [NBEAL2_Y1835_E1833K] | phosphorylation enrichment: 0.379

Quick note, phosphorylation enrichment for TYQYKYPEGSS [TGM4_Y440_E437Q] landed at 0.509

The reported value for GKVFIYHGSSL [ITGA7_Y458] in terms of phosphorylation enrichment is 0.546

Form: sequence = DFTSRYLSASD [PKHD1_Y828_N830S] ; phosphorylation enrichment = 0.42

# phosphorylation enrichment of SAEEDYIADAK [KCNT1_Y876_M877I] = 0.608

Form field phosphorylation enrichment, entry QNWELYSEGLG [CNKSR1_Y665_R662W] : 0.869

The recorded phosphorylation enrichment for entry FTNELYMMMRD [FGFR1_Y730_C725Y_YF] equals 0.752

Lab book: phosphorylation enrichment of GYQPEYGQPAG [SYP_Y278_D277E] noted as 0.487

According to the records, this sequence KEIHAYRKLLE [LMNA_Y376_M371K] displays phosphorylation enrichment of 0.468

# phosphorylation enrichment (sequence: SLNEEYAKNKT [MSH2_Y563_T564A] ) is 0.318

So, GIADDYDKKKL [EIF1_Y54] ? Its phosphorylation enrichment was 0.4

Kindly note the recorded phosphorylation enrichment for DKANRYFSPNV [PTEN_Y336_F341V] , which is 0.363

Lab book: phosphorylation enrichment of ERNAHYRTPKI [PTK2B_Y699_R698H] noted as 0.424

FSQQVYRVNLS [FAT4_Y480] has a reported phosphorylation enrichment of 0.495

// recorded phosphorylation enrichment for AFGEVYEGQVS [ALK_Y1131] : 0.459

The recorded phosphorylation enrichment for entry FLGKGYSDGGC [MC4R_Y35_S30F] equals 0.542

Noted for KIFPEYLSNWT [AIFM1_Y347_L344F] : its phosphorylation enrichment reads 0.502

Lab book: phosphorylation enrichment of NFRTTCVNANE [KCNH2_Y475_Y475C] noted as 0.464

Record TRSYDYMEGED [FGF7_Y58_G62E] . Reported phosphorylation enrichment: 0.645

###

Hi there, I'd appreciate the recorded phosphorylation enrichment for every entry that follows.
- System: c-Abl (mouse)
- test-method-notes: phosphorylation enrichment, bacterial display (enrichment ratio); higher = better substrate or ligand; peptides without Tyr show the background

Reported phosphorylation enrichment ( AEKPKYQINNI [TJP1_Y1602] ) = 0.548

Lab note: measured phosphorylation enrichment of DLQDENDFKCK [STAT1_Y170_Y170N] was 0.812

Entry under test: EFNINYNNEPP [THG1L_Y228_L232P] . Its phosphorylation enrichment was 0.852

Record AFGEVYEGQVS [ALK_Y1131] , field phosphorylation enrichment: 0.764

Recorded phosphorylation enrichment (sequence KDFTKYVAFIE [KDM4B_Y31_N29T_YF] ): 0.614

// recorded phosphorylation enrichment for DLAAQYTTVGH [SGSH_Y240_R245H] : 0.593

Summary for this sequence, AALSAYAAQRP [PTPRN2_Y249] : phosphorylation enrichment is 0.377

For reference, reported phosphorylation enrichment for EALDFYGELRT [PTEN_Y155_V158L] stands at 0.843

Form: sequence = AAFNKYDQERF [CDC73_Y293_R292K_YF] ; phosphorylation enrichment = 0.494

Given item GMTLSYLFWEP [NDUFS8_Y74_R77W] , the value recorded as its phosphorylation enrichment is 1.32

Recorded result, GAVGNYSRGLA [MGMT_Y158_G160R] , phosphorylation enrichment: 0.401

// phosphorylation enrichment value for IKGNMYYENSY [EGFR_Y112_R108K] : 0.632

Reported phosphorylation enrichment ( LTAEVYFPSIK [C5orf64_Y60] ) = 1.64

Form field phosphorylation enrichment, entry KDFTKYVAYIE [KDM4B_Y31_N29T] : 0.679

Documented phosphorylation enrichment of KEIHAYRKLLE [LMNA_Y376_M371K] : 0.489

# sequence NDHHVYLEGTL [ALDOB_Y223] ; its phosphorylation enrichment = 0.555

The reported value for FPMLNYKDIRK [CFAP221_Y798] in terms of phosphorylation enrichment is 0.398

The recorded phosphorylation enrichment for SLAARYYNWVS [FLT4_Y1230] is 0.933

###

- System: c-Abl (mouse)
- test-method-notes: phosphorylation enrichment, bacterial display (enrichment ratio); higher = better substrate or ligand; peptides without Tyr show the background
Exercise: for every item that follows, state its recorded phosphorylation enrichment.
Simply state the number, no unit and no words.

The reported phosphorylation enrichment value, c-Abl (mouse), for KLLLKYSFHDA [RNF213_Y4141_V4146A] reads 0.616

Item TFRPPYFHRDC [HGD_Y333_N337D_YF] was tested on c-Abl (mouse); the reported phosphorylation enrichment is 0.587

Assay c-Abl (mouse), sample QNKEDYAGLKE [GSTO1_Y139] , phosphorylation enrichment read: 1.37

c-Abl (mouse) phosphorylation enrichment of WISNRSLDFSS [PRPH2_Y184_Y184S] is 0.578

Bench note, c-Abl (mouse): HKLSSYEFDFE [BTK_Y40_Y39S_YF] , phosphorylation enrichment reads 1.43

Kindly note: c-Abl (mouse), EFNLMYHGTKE [IRF6_Y97_D98H] , phosphorylation enrichment value reported: 0.593

Bench note, c-Abl (mouse): SRGLAYPARPA [LEMD2_Y122] , phosphorylation enrichment reads 0.386

GET /values?item= RLQEGYDHSYY [ESD_Y258] &system= c-Abl (mouse) returns phosphorylation enrichment: 1.11

Considering QEMMEYRRQIQ [DES_Y324_H326R] , its phosphorylation enrichment with c-Abl (mouse) was recorded as 0.428

Value sought: phosphorylation enrichment, system c-Abl (mouse), item ERNAHYRTPKI [PTK2B_Y699_R698H] . Result: 0.615

Short answer on c-Abl (mouse) for NTGYYYDLYGG [PTPN11_Y63_D61Y] , phosphorylation enrichment: 0.971

Item RDLRTYIMPAH [PNMT_Y256] was tested on c-Abl (mouse); the reported phosphorylation enrichment is 0.772

Item SNKLTYGTVVF [ACOX1_Y275_M278V] ; assay system c-Abl (mouse); phosphorylation enrichment reported as 0.613

Entry PQAVRYIYTID [DCX_Y103_G100A] : phosphorylation enrichment on c-Abl (mouse) = 1.01

Reported phosphorylation enrichment (c-Abl (mouse)) for entry VNNLVYENING [FRS2_Y306_K303N] is 0.703

Bench note, c-Abl (mouse): GPKSTYISSAA [GOLGA5_Y62] , phosphorylation enrichment reads 0.488

c-Abl (mouse) data for ESFCLYPPVPQ [CYP4B1_Y377_R375C] ; its phosphorylation enrichment: 0.739

For the sequence GFWPRYVKVGS [NOG_Y172_R167G] , the measured phosphorylation enrichment on c-Abl (mouse) was 0.568

Noted phosphorylation enrichment for DAHFTYSRFPW [LY75_Y888_D884A_YF] , tested on c-Abl (mouse): 1

# phosphorylation enrichment measured on c-Abl (mouse) for item GVRYTYTIDGS [DCX_Y105_I104T] = 0.634

phosphorylation enrichment for c-Abl (mouse) with input GRLFAYPDTHR [CAT_Y358] equals 0.597

Measured on c-Abl (mouse), MNKNAYHNVTT [ST3GAL6_Y306_A311T] has a documented phosphorylation enrichment of 0.525

Response field phosphorylation enrichment (c-Abl (mouse)) for item RVFIKYLPEWT [PSEN1_Y240_L235R] : 1.13

Observed phosphorylation enrichment on c-Abl (mouse), entry REGAKYVSHSA [ASS1_Y113_G117S] , equals 0.818

Measured phosphorylation enrichment for this entry SAEKAYHEQFS [TUBA1A_Y282_L286F] on c-Abl (mouse): 0.454

Lab entry: c-Abl (mouse) assay, sequence LMLVLYGRIFR [HTR1A_Y215] , phosphorylation enrichment = 0.791

Summary: YGMSTYITRED [FNDC3B_Y180] , c-Abl (mouse), phosphorylation enrichment = 0.924

Entry VQVAFYTMMMN [SPATA17_Y84_YF] under c-Abl (mouse) had phosphorylation enrichment of 1.03

Record HSRTRYERNIE [F2_Y434] / c-Abl (mouse), phosphorylation enrichment recorded as 0.929

Test item PVQAVYQKVVA [HBB_Y131_A130V] ; c-Abl (mouse); reported phosphorylation enrichment was 0.203

Lab entry: c-Abl (mouse) assay, sequence CSPLLYKVIMS [OR8D4_Y132_R133K] , phosphorylation enrichment = 0.955

Fill in: c-Abl (mouse) phosphorylation enrichment for FLAATYPTLGQ [NF1_Y2508_V2511L_YF] = 0.549

Considering VVTGPYEKPSL [KIR3DS1_Y221_L220P] , its phosphorylation enrichment with c-Abl (mouse) was recorded as 0.966

The recorded phosphorylation enrichment with c-Abl (mouse) for IGRGSYAKVLL [PRKCZ_Y263] was 0.468

Sample TSYSGYRCHRH [NKAPL_Y94_Y96C] , system: c-Abl (mouse). Its phosphorylation enrichment is 0.528

Observed phosphorylation enrichment on c-Abl (mouse), entry GMAHNYRNRSQ [AASS_Y188_S191R] , equals 0.57

Per the reported c-Abl (mouse) data, SYTDPYAQPSL [KMT2D_Y2378_P2382S] has phosphorylation enrichment of 0.82

So the reported phosphorylation enrichment for HLEKKYVRRDS [CSF1R_Y708] , on c-Abl (mouse), turned out to be 2.1

Observed phosphorylation enrichment, c-Abl (mouse), GQAPGYSYTAA [CYCS_Y47] : 0.56

MEVEQYIFVKC [CYBB_Y324_G322E] on c-Abl (mouse) gives phosphorylation enrichment = 1.04

Form field, phosphorylation enrichment with c-Abl (mouse), item SIKGKYVTALY [KCNH2_Y611_D609G] : 0.517

For EIRTQYEAMAS [GFAP_Y242] on c-Abl (mouse), measured phosphorylation enrichment was 0.676

Per the reported c-Abl (mouse) data, GNYSGYDDAWD [POLR1C_Y36] has phosphorylation enrichment of 0.964

Form field phosphorylation enrichment for item GESLTYVSTTF [C1orf162_Y120_A121V] on c-Abl (mouse): 0.494

Tested system c-Abl (mouse); phosphorylation enrichment recorded for VFLARYGPAWR [CYP2D6_Y124] was 0.52
